Values were extracted from the supplement of paper PMC6757056.

The following variants are shown together with reported normalized RNA/DNA level with ligand (log10) values.
B1: library; a variant is named by its letters at N, in order (parent)
chain: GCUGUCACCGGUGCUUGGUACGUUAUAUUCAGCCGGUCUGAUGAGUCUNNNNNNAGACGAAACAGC

# Variants of: B1
# assay overview: normalized RNA/DNA level with ligand (relative to sTRSVctl = 100) (log10 (% of sTRSVctl)); HEK293T overexpressing SLC46A1; ligand concentration (+) RNA-Seq: 6 mM; higher = less ribozyme self-cleavage, higher mRNA level
# condition parameters: with (6R,S)-folinic acid; ligand present: yes

mutant designation: UUAUAC
reported value: 1.99

mutant designation: UCUUGG
reported value: 1.99

mutant designation: ACGUAG
reported value: 1.99

mutant designation: AUCAAA
reported value: 2

mutant designation: AAGCGC
reported value: 2.03

mutant designation: CGUGAG
reported value: 1.99

mutant designation: CCCGCC
reported value: 2.05

mutant designation: GGUAUU
reported value: 1.98

Lab note: measured normalized RNA/DNA level with ligand (log10) of CCUUAA was 2

Please fill in: normalized RNA/DNA level with ligand (log10) reported for UGGCAG = 1.96

// field: normalized RNA/DNA level with ligand (log10); key: UAGGGU ; value = 1.98

Value of measured normalized RNA/DNA level with ligand (log10) for the entry AUCAUA : 1.99

// sample CGAACU , its normalized RNA/DNA level with ligand (log10) was 2
